Values compiled from the supplement of paper PMC6522484.

System: SW480
Assay: cell viability (CellTiter-Glo) relative to plate median (fraction of plate median); higher = more viable cells
Details: 5 µM; treatment time 24 h; reporter: 7TFP
Readout name: cell viability
In your answer, state the number alone without any accompanying words.

Use these answered entries as a reference point.
O=C1CC[C@]23/C=C/C(=O)NCCCCNCCCNC(=O)/C=C/c4ccc(c2c4)O[C@@H]3C1 :: 1.01
COc1cc(C(C)=O)cc(OC)c1O :: 1.01
O=C(O)c1cc(O)c2c(c1)C(=O)c1cc(O)cc(O)c1C2=O :: 0.991
COc1cc(C(=O)NCCCCCC(=O)O)cc(OC)c1OC :: 1.01

cell viability in this record for "O=C(O[C@@H]1Cc2c(O)cc(O)cc2O[C@@H]1c1cc(O)c(=O)c2c(O)c(O)cc([C@H]3Oc4cc(O)cc(O)c4C[C@H]3O)c2c1)c1cc(O)c(O)c(O)c1" : 1.01

The reported value for "COc1ccc(C(Cl)=C(c2ccc(OC)cc2)c2ccc(OC)cc2)cc1" in terms of cell viability is 0.978

cell viability reading for "COc1c2ccoc2cc2oc(=O)ccc12" : 0.978

Form field cell viability, entry "Cc1ccc(C)c(OCCCC(C)(C)C(=O)O)c1" : 1.01

Lab book: cell viability of "CN1CCC[C@@H]1CCO[C@](C)(c1ccccc1)c1ccc(Cl)cc1" noted as 1.05

Recorded cell viability (molecule COc1c(-c2coc3cc4c(cc3c2=O)CC(O)C(C)(C)O4)ccc2c1C=CC(C)(C)O2 (centres undefined) ): 1.02

Entry "Cc1cc(-c2ccccc2)nnc1NCCN1CCOCC1" , cell viability reported as 1.03

Record CN1CCCC(n2nc(Cc3ccc(Cl)cc3)c3ccccc3c2=O)CC1 (centres undefined) , field cell viability: 1.04

Reported cell viability for "CCCCC[C@@H](O)[C@H]1C(=O)O[C@H](C)[C@@H](O)/C=C/C=C/C=C/C=C/C=C(\C)[C@@H](O)C[C@H](O)C[C@H](O)C[C@H](O)C[C@H](O)C[C@H](O)C[C@@H]1O" was 0.989

Lab note: "COc1cc(C)cc2ccc(-c3ccc4c(c3O)[C@@H](C)N[C@H](C)C4)c(O)c12" gave cell viability of 1.05

----------
Tested on: HCT116
Test: TCF/Wnt firefly luciferase reporter signal relative to plate median (fraction of plate median); higher = higher Wnt reporter signal
Conditions: 10 µM; treatment time 24 h; reporter: TCF4/Wnt
Listed here: items and their measured TCF/Wnt firefly luciferase reporter signal.
Give a plain numeric answer without units written out.

FC(F)(F)c1ccc(Nc2nc3ccc(Oc4ccnc(-c5ncc(C(F)(F)F)[nH]5)c4)cc3[nH]2)cc1 [Raf265 derivative] :: 0.912

TCF/Wnt firefly luciferase reporter signal recorded for this molecule, "COc1cc2c(Oc3ccc(NC(=O)C4(C(=O)Nc5ccc(F)cc5)CC4)cc3F)ccnc2cc1OCCCN1CCOCC1" , is 1.2

// "COc1cccc(-c2cc(=O)c3ccccc3o2)c1N" : TCF/Wnt firefly luciferase reporter signal value = 1.25

Entry under test: "Cc1c(NC(=O)OC[C@@H]2COCCN2)cn2ncnc(Nc3ccc4c(cnn4Cc4cccc(F)c4)c3)c12" . Its TCF/Wnt firefly luciferase reporter signal was 1.01

The molecule listed as "Cc1cccc(-c2[nH]c(C(C)(C)C)nc2-c2ccc3nccnc3c2)n1" shows TCF/Wnt firefly luciferase reporter signal equal to 1.03

Summary for this molecule, "Clc1ccc(C2(c3ccc(-c4cn[nH]c4)cc3)CCNCC2)cc1" : TCF/Wnt firefly luciferase reporter signal is 0.871
